- measurementTarget: T1, 4H717-AA
- T1 chain: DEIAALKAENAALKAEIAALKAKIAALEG
- method: two-hybrid library CCmax;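 also: natural log of median RNA to DNA barcode read ratio; higher means stronger binding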
- measurementSetup: mean of both orientations
Entry flag: yes (1) if interaction score reaches -0.9; no (0) if it does not.

Some solved entries appear below for comparison.
binder: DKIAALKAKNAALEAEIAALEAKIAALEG [4H2949-AA]
labelValue: yes (1)
--
binder: DKNAALKAEIAALKAEIAALEAKNAALEG [4H3655-AA]
labelValue: no (0)
--
binder: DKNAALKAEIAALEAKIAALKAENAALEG [4H3627-AA]
labelValue: no (0)
--
binder: DEIAALKAENAALEAKIAALEAKIAALKG [4H678-AA]
labelValue: yes (1)
--
binder: DKNAALKAKNAALEAKIAALEAEIAALEG [4H4001-AA]
labelValue: no (0)
--
binder: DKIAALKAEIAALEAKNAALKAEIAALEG [4H2617-AA]
labelValue: no (0)

Then there is this binder:
Hi, just wondering whether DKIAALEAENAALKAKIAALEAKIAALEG [4H2277-AA] shows interaction score of -0.9 or higher.
no (0)
